assayed-system: T1, RAPGEF6, Q8TEU7
T1 sequence (Q8TEU7 525-625, limits assumed, looked up): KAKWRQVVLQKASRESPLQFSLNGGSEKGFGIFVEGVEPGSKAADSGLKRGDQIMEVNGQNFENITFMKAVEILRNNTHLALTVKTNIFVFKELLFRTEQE
method-notes: holdup assay
Set-up: key: below the threshold = too weak to quantify, mostly under pKd 3.1 to 4
experimental-parameters: plain residues with an end cap or a label only (N-terminal biotin on a linker: ado-ado)
readout-name: pKd

TPPAAKKSRI [BAZ1A, Q9NRL2] | 3.53
GQEEQVTTRL [TRPC5, Q9UL62] | below the threshold
TASPAKETSF [SLC2A7, Q6PXP3] | below the threshold
RRLPGKETMA [GRIK2, Q13002] | 3.53

Consider the following items and state reported pKd for each.
1. QGLAERISVL [PRKD2, Q9BZL6]
2. RKPKPSSSCC [RAB9A, P51151]
3. LGRSTPQSEV [DGKH, Q86XP1]

Response line:
["below the threshold", "below the threshold", "below the threshold"]

Prompt line: What value of measured pKd is listed for KKAPTNEFYA [SDC4, P31431] ?
Response line: below the threshold
